// data source = patent US20080103158A1

Each record here notes measured melting point.

// below: answered compounds
> print(dat)
                                   compound  measured.value
1              CCCC1(CCC)C(=O)N=C2C=CC=CN21     73 to 75 °C
2  O=C1N=C2C=CC=CN2C12Cc1ccc3ccccc3c1C2 (stereo not shown)   256 °C (dec.)
3  N#Cc1ccc(CC2(Cc3ccc(C#N)cc3)C(=O)N=C3SC=CN32)cc1   264 to 267 °C
4  CC1=CC2=NC(=O)C(Cc3ccccc3)(Cc3ccccc3)N2C(C)=C1   237 to 238 °C
5  CC(c1ccccc1)C1(C(C)c2ccccc2)C(=O)N=C2C(OCc3ccccc3)=CC=CN21 (stereo not shown)   234 to 235 °C

Value of measured melting point for the entry CC(C)OC1=CC=CN2C1=NC(=O)C2(Cc1ccccc1)Cc1ccccc1 : 247 to 248 °C

Value of measured melting point for the entry CN(C)c1ccc(CC2(Cc3ccc(N(C)C)cc3)C(=O)N=C3C=CC=CN32)cc1 : > 300 °C

---

Each record here notes measured melting point.

// below: answered compounds
> print(dat)
                                   compound   measured.value
1            C=CCC1(CC=C)C(=O)N=C2C=CC=CN21      64 to 66 °C
2        O=C1N=C2C(OCC3CC3)=CC=CN2C12CC=CC2    134 to 137 °C
3  N#Cc1cccc2c1CC1(C2)C(=O)N=C2C=CC=CN21 (stereo not shown)  247.7 °C (dec.)
4      O=C1N=C2SC=CN2C1(Cc1ccccc1)Cc1ccccc1         > 300 °C
5  O=C1N=C2C=CC=CN2C1(CCCc1ccccc1)CCCc1ccccc1    227 to 228 °C
6  O=C1N=C2C(Cl)=CC(Cl)=CN2C1(Cc1ccccc1)Cc1ccccc1    260 to 261 °C

Value of measured melting point for the entry CCCCC1(CCCC)C(=O)N=C2C=CC=CN21 : 100.5 to 102 °C

Value of measured melting point for the entry C=CCC1(CC=C)C(=O)N=C2c3ccccc3C=CN21 : 108 to 110 °C

Value of measured melting point for the entry O=C1N=C2C=CC=CN2C1(Cc1ccc(Cl)cc1)Cc1ccc(Cl)cc1 : 293 to 296 °C

Value of measured melting point for the entry O=C1N=C2C=CC=CN2C12Cc1cc3ccccc3cc1C2 : 214 °C (dec.)

---

Each record here notes measured melting point.

> print(dat)
                       compound.smiles    metric.name  measured.value
1  O=C1N=C2SCCN2C1(Cc1ccccc1)Cc1ccccc1  melting point   233 to 236 °C

Value of measured melting point for the entry O=C1N=C2N=CC=CN2C1(Cc1cccs1)Cc1cccs1 : 192 °C (dec.)

Value of measured melting point for the entry CC(=O)NC1=CC=CN2C1=NC(=O)C2(Cc1ccccc1)Cc1ccccc1 : 235 to 237 °C

Value of measured melting point for the entry O=C1N=C2C=CC=CN2C1(Cc1ccco1)Cc1ccco1 : 205 °C (dec.)

Value of measured melting point for the entry Cc1ccc(CC2(Cc3ccc(C)cc3)C(=O)N=C3SC=CN32)cc1 : > 300 °C

Value of measured melting point for the entry O=C1N=C2C=CC=CN2C1(Cc1ccc(O)cc1)Cc1ccc(O)cc1 : 276.5 to 277.5 °C
